Sourced from patent US20220396626A1

- tgt: T1, Recombinant Human CLL-1 Protein (his), Acro CLA-H5245 (human, UniProt Q5QGZ9 65-265)
- T1 construct: also called Analyte 1; not shown: his tag
- T1 sequence (looked up): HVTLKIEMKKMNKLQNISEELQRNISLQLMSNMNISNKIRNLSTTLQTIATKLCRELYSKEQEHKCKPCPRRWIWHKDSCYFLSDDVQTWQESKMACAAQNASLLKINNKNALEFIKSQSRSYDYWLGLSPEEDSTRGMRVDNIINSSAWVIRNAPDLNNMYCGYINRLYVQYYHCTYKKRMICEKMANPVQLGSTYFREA
- method: SPR, antibody captured on Protein A chip, recombinant human CLL-1 as analyte 3.125-50 nM, 1:1 model
parameter_measured: koff (s⁻¹)
Field format: number, assumed s⁻¹, no unit text.

Item: 27H4-scFv-hFc (Fc fusion, VL-(G4S)3-VH structure with C-terminal human IgG1 Fc; also called Anti-CLL1 scFv-hIgG1; not shown: human IgG1 Fc fused at the C-terminus) scFv: DIVMSQSPSSLAVSVGEKVTMSCKSSQSLLYSDNQKNYLAWYQQKPGQSPKLLIYWASTRESGVPDRFTGSGSGTDFTLTISSVKAEDLAVYYCQQYYTYPYTFGGGTKLEIKGGGGSGGGGSGGGGSEVQLQQSGPELVKPGASVKISCKASGYSFTGYHMHWVKQSHVKSLEWIGRINPYNGAASHNQKFKDKATLTVDKSSSTAYMELHSLTSEDSAVYYCARGWDYDGGYYAMDYWGQGTSVTVSS | koff: 0.0126

get_value(item= humanized antibody hz27H4H1L2 (antibody, V domains shown, Heavy chain variable region hz27H4H1 with light chain variable region hz27H4L2; also called h27H4H1L2 (complete antibody)) VH: EVQLVQSGAEVKKPGASVKVSCKASGYTFTGYHMHWVRQAPGQRLEWMGRINPYNGAASHNQKFKDRVTITRDTSASTAYMELSSLRSEDTAVYYCARGWDYDGGYYAMDYWGQGTLVTVSS VL: DIVMTQSPLSLPVTPGEPASISCKSSQSLLYSDNQKNYLAWYLQKPGQSPQLLIYWASTRESGVPDRFSGSGSGTDFTLKISRVEAEDVGVYYCQQYYTYPYTFGQGTKLEIK , readout=koff) returns 0.00544

Short answer for humanized antibody hz27H4H1L1 (antibody, V domains shown, Heavy chain variable region hz27H4H1 with light chain variable region hz27H4L1; also called h27H4H1L1 (complete antibody)) VH: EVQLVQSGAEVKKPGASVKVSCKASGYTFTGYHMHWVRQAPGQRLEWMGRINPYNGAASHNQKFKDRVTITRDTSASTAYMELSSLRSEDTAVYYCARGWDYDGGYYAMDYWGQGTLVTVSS VL: DIQMTQSPSSLSASVGDRVTITCKSSQSLLYSDNQKNYLAWYQQKPGKAPKLLIYWASTRESGVPSRFSGSGSGTDFTLTISSLQPEDFATYYCQQYYTYPYTFGQGTKLEIK : koff was 0.00549

Others:
Recorded result, 19C1-scFv-hFc (Fc fusion, VL-(G4S)3-VH structure with C-terminal human IgG1 Fc; also called Anti-CLL1 scFv-hIgG1; not shown: human IgG1 Fc fused at the C-terminus) scFv: QIVLTQSPAIMSASPGEKVTMTCSASSSVSYMYWYQQKPGSSPRLLIFDTSNLASGVPVRFSGSGSGTSYSLTISRMEAEDAATYYCQQWSSYPLTFGAGTKLELKGGGGSGGGGSGGGGSQVQLQQSGAELMKPGASVKISCKATGYTFSSYWIEWVKQRPGHGLEWIGEIFPGSGSIKYNEKFKGKATFTADTSSNTAYMQLSSLTSEDSAVHYCARGGTYNDYSLFDYWGQGTTLTVSS , koff: 0.00509

Reported koff ( 23D7-scFv-hFc (Fc fusion, VL-(G4S)3-VH structure with C-terminal human IgG1 Fc; also called Anti-CLL1 scFv-hIgG1; not shown: human IgG1 Fc fused at the C-terminus) scFv: QIVLTQSPAIMSASPGEKVTMTCSASSSVSYIYWYQQKPGSSPGLLIYDTSNLASGVPVRFSGSGSGTSYSLTISRMEAEDAATYYCQQWSSFPPTFGAGTKLELKGGGGSGGGGSGGGGSQVQLQQPGSDLVRPGASVKLSCKASGYTFTRYWMHWVKQRPGHGLEWIGYIYPGSGTSNYDEKFKSKATLTVDTSSSTAYMQLSSLTSEDSAVYYCTREARYTMDYWGQGTSVTVSS ) = 0.0322
